These measurements were taken from the OPERA property sets (Mansouri et al. 2018).

ATTRIBUTE MEASURED: logP

Use these answered entries as a reference point.
>  <COMPOUND>
O=C(C=Cc1ccc(O)c(O)c1)NCCc1ccccc1

>  <logP>
2.72

$$$$
>  <COMPOUND>
CCc1ccc2cc(O)c(O)cc2c1

>  <logP>
3.25

$$$$
>  <COMPOUND>
CCCCc1ccc(O)c(O)c1

>  <logP>
2.96

$$$$

(I) COc1ccc(NC(=O)C=Cc2ccc(O)c(O)c2)cc1OC
(II) CCCCC=Cc1ccc(O)c(O)c1
Could you determine which record has the numerically smaller logP? Candidates: I and II Let me know the label of the one you choose.
I
(I: 2.3, II: 3.82)

----------
ATTRIBUTE MEASURED: logP

Look over these answered cases.
>  <COMPOUND>
CCOc1ccc2cc(O)c(O)cc2c1

>  <logP>
2.7

$$$$
>  <COMPOUND>
CCCCCCNC(=O)c1ccc(O)c(O)c1

>  <logP>
2.71

$$$$
>  <COMPOUND>
COc1ccc(CCNC(=O)C=Cc2ccc(O)c(O)c2)cc1OC

>  <logP>
2.07

$$$$
>  <COMPOUND>
O=C(C=Cc1ccc(O)c(O)c1)NCc1ccccc1

>  <logP>
2.48

$$$$
>  <COMPOUND>
CCCCCCNC(=O)C=Cc1ccc(O)c(O)c1

>  <logP>
3.37

$$$$
>  <COMPOUND>
CCCCOC(=O)/C=C/c1ccc(O)c(O)c1

>  <logP>
3.53

$$$$
>  <COMPOUND>
COc1ccc(CNC(=O)C=Cc2ccc(O)c(O)c2)cc1OC

>  <logP>
1.99

$$$$
>  <COMPOUND>
CCCCCC(O)c1ccc(O)c(O)c1 (stereo unspecified)

>  <logP>
2.32

$$$$

(I) CCCC(=O)C=Cc1ccc(O)c(O)c1
(II) O=C(C=Cc1ccc(O)c(O)c1)CCCCCO
Compare logP: is it lower for I or for II ? Indicate which entry you chose by stating its label.
II
(II: 1.67, I: 2.61)
